For each of the molecules below, state its MIC.
# Test system: Candida parapsilosis
# assayRemarks: Antifungal activity against Candida parapsilosis ATCC 22019 after 24 hrs by macrodilution method
# Assay type: functional
# particulars: Lodderomyces parapsilosis, ATCC 22019, 24 h
# value in µg/mL; strip the unit string

Problem: Fill in MIC for record OC(Cn1cncn1)(Cn1nnc2cc(Cl)ccc21)c1ccc(F)cc1F (racemic)
Result: 12.5

Problem: Return reported MIC. Input molecule: OC(Cn1cncn1)(Cn1nnc2ccc(F)cc21)c1ccc(F)cc1F (racemic)
Result: 25

Problem: Specify reported MIC for the molecule shown: Cc1ccc2nnn(CC(O)(Cn3cncn3)c3ccc(F)cc3F)c2c1 (racemic)
Result: 6.2

Problem: Determine from records and report MIC for COc1ccc2c(c1)nnn2CC(O)(Cn1cncn1)c1ccc(F)cc1F (racemic)
Result: 12.5

Problem: Dear colleague, please send me the reported MIC for O=[N+]([O-])c1ccc2c(c1)nnn2CC(O)(Cn1cncn1)c1ccc(F)cc1F (racemic) when you can.
Result: 6.2

Problem: Please report the measured MIC for OC(Cn1cncn1)(Cn1nnc2ccc(Cl)cc21)c1ccc(F)cc1F (racemic)
Result: 100

Problem: Fill in MIC for record OC(Cn1cncn1)(Cn1nnc2ccccc21)c1ccc(F)cc1F (racemic)
Result: 0.8

Problem: Output measured MIC for this item: C[C@@H]1[C@H](O)[C@@H](C)/C=C/C=C/C=C/C=C/C=C/C=C/C=C/[C@H](O[C@@H]2O[C@H](C)[C@@H](O)[C@H](N)[C@@H]2O)C[C@@H]2O[C@](O)(C[C@@H](O)C[C@@H](O)[C@H](O)CC[C@@H](O)C[C@@H](O)CC(=O)O[C@H]1C)C[C@H](O)[C@H]2C(=O)O [AMPHOTERICIN B]
Result: 0.4

Problem: Indicate the recorded MIC value for this molecule: Cc1ccc2c(c1)nnn2CC(O)(Cn1cncn1)c1ccc(F)cc1F (racemic)
Result: 12.5

Problem: Answer with the recorded MIC for the molecule listed here: OC(Cn1cncn1)(Cn1nnc2cc(F)ccc21)c1ccc(F)cc1F (racemic)
Result: 3.1
